# experimental protocol: Waters ACQUITY UPLC BEH C18, 100 × 2.1 mm, 1.7 µm, 40 °C, 0.3 to 0.4 mL/min, estimated dead time 0.63 min; A: water + 0.1% formic acid; B: methanol + 0.1% formic acid; gradient (min/%B) 0/0.5 0.1/0.5 10/80 10.1/99.5 12/99.5
# assay setup: stereoisomer not certain
Catalogue of LC retention time readings, one per entry.
The number alone won't do; follow it with the unit.

compound	assay endpoint	result
O=C(CCc1ccccc1)c1c(O)cc(O)cc1OC1OC(CO)C(O)C(O)C1O (stereo not drawn)	LC retention time	4.85 min
COc1cc2cc3c4cc(OC)c(OC)cc4cc[n+]3c(C)c2cc1OC	LC retention time	5.27 min

Turning to the following compound.
Please look up its LC retention time: COc1cc(-c2cc(=O)c3c(O)cc(OC4OC(CO)C(O)C(O)C4O)cc3o2)cc(OC)c1O (stereo not drawn) 4.57 min

Where these numbers come from: the RepoRT retention time repository
